Origin of values: patent US9708306B2

System: spontaneously hypertensive rats (SHR)
PROCEDURE_SUMMARY: Effect on reducing blood pressure of spontaneously hypertensive rats (SHR) by multiple oral administrations
Assay type: in vivo
PROTOCOL_CONDITIONS: Rattus norvegicus; 2.0 mg/kg oral once per day, SHR, 1 hour after the administration; read-out: Maximum blood pressure reduction, 1st-day administration
Listing: inhibition in vivo at 2 mg/kg of selected compounds

COMPOUND	inhibition in vivo at 2 mg/kg / %
CCOc1nc2cccc(C(=O)OCc3oc(=S)oc3C)c2n1Cc1ccc(-c2ccccc2-c2noc(=O)[nH]2)cc1	34
CCOc1nc2cccc(C(=O)OCc3no[n+]([O-])c3CO[N+](=O)[O-])c2n1Cc1ccc(-c2ccccc2-c2noc(=O)[nH]2)cc1	44
CCOc1nc2cccc(C(=O)OCc3no[n+]([O-])c3C#N)c2n1Cc1ccc(-c2ccccc2-c2noc(=O)[nH]2)cc1	46
CCOc1nc2cccc(C(=O)OC(C)OC(=O)OCc3nc(C)c(C)nc3C)c2n1Cc1ccc(-c2ccccc2-c2noc(=O)[nH]2)cc1 (stereo not shown)	42
CCOc1nc2cccc(C(=O)OCOC(=O)OCc3no[n+]([O-])c3C)c2n1Cc1ccc(-c2ccccc2-c2noc(=O)[nH]2)cc1	36
CCOc1nc2cccc(C(=O)OCOC(=O)C(C)(C)C)c2n1Cc1ccc(-c2ccccc2-c2noc(=O)[nH]2)cc1	45
CCOc1nc2cccc(C(=O)OC(C)OC(=O)OCc3no[n+]([O-])c3C)c2n1Cc1ccc(-c2ccccc2-c2noc(=O)[nH]2)cc1 (stereo not shown)	44
CCOc1nc2cccc(C(=O)OC(C)OC(=O)OC(C)C)c2n1Cc1ccc(-c2ccccc2-c2noc(=O)[nH]2)cc1 (stereo not shown)	39
CCOc1nc2cccc(C(=O)OCc3no[n+]([O-])c3C)c2n1Cc1ccc(-c2ccccc2-c2noc(=O)[nH]2)cc1	45
CCOc1nc2cccc(C(=O)OCc3c(-c4ccccc4)no[n+]3[O-])c2n1Cc1ccc(-c2ccccc2-c2noc(=O)[nH]2)cc1	45

* * *

Tested on: normal rats
PROCEDURE_SUMMARY: Effect on blood pressure of normal rats by single oral administration
Assay type: in vivo, Wistar rats
PROTOCOL_CONDITIONS: Rattus norvegicus, po, 8 h; 2.0 mg/kg p.o., single, normal rats; read-out: blood pressure reduction at 8 h after the administration
Listing: inhibition in vivo at 2 mg/kg of selected compounds
READOUT_LABEL: inhibition in vivo at 2 mg/kg (%)

COMPOUND	TGT	READOUT_LABEL	VALUE_UNITS	NUMBER
CCOc1nc2cccc(C(=O)OCOC(=O)OCc3ccno3)c2n1Cc1ccc(-c2ccccc2-c2noc(=O)[nH]2)cc1	normal rats	inhibition in vivo at 2 mg/kg	%	3.7
CCOc1nc2cccc(C(=O)OCOC(=O)OCc3no[n+]([O-])c3C)c2n1Cc1ccc(-c2ccccc2-c2noc(=O)[nH]2)cc1	normal rats	inhibition in vivo at 2 mg/kg	%	5.6
CCOc1nc2cccc(C(=O)OCOC(=O)OCc3ccn(C)c3)c2n1Cc1ccc(-c2ccccc2-c2noc(=O)[nH]2)cc1	normal rats	inhibition in vivo at 2 mg/kg	%	4.8
CCOc1nc2cccc(C(=O)OC(OC(=O)OCc3nc(C)c(C)nc3C)C(C)(C)C)c2n1Cc1ccc(-c2ccccc2-c2noc(=O)[nH]2)cc1 (stereo not shown)	normal rats	inhibition in vivo at 2 mg/kg	%	2.5
CCOc1nc2cccc(C(=O)OC(C)OC(=O)OCc3ccn(C)c3)c2n1Cc1ccc(-c2ccccc2-c2noc(=O)[nH]2)cc1 (stereo not shown)	normal rats	inhibition in vivo at 2 mg/kg	%	4.2
CCOc1nc2cccc(C(=O)OC(C)OC(=O)OC(C)C)c2n1Cc1ccc(-c2ccccc2-c2noc(=O)[nH]2)cc1 (stereo not shown)	normal rats	inhibition in vivo at 2 mg/kg	%	6.4
CCOc1nc2cccc(C(=O)OC3CCc4c3no[n+]4[O-])c2n1Cc1ccc(-c2ccccc2-c2noc(=O)[nH]2)cc1 (stereo not shown)	normal rats	inhibition in vivo at 2 mg/kg	%	6.1

* * *

System: normal rats
PROCEDURE_SUMMARY: Effect on blood pressure of normal rats by single oral administration
Format: in vivo, Wistar rats
PROTOCOL_CONDITIONS: Rattus norvegicus, po; 2.0 mg/kg p.o., single, normal rats; read-out: variations on heart rate
Listing: change in vivo at 2 mg/kg of selected molecules
READOUT_LABEL: change in vivo at 2 mg/kg

MOLECULE	RESULT
CCOc1nc2cccc(C(=O)OCc3no[n+]([O-])c3CO[N+](=O)[O-])c2n1Cc1ccc(-c2ccccc2-c2noc(=O)[nH]2)cc1	-2%
CCOc1nc2cccc(C(=O)OCOC(=O)OCc3ccn(C)c3)c2n1Cc1ccc(-c2ccccc2-c2noc(=O)[nH]2)cc1	-3%
CCOc1nc2cccc(C(=O)OCOC(=O)OC(C)C)c2n1Cc1ccc(-c2ccccc2-c2noc(=O)[nH]2)cc1	5%
CCOc1nc2cccc(C(=O)OCc3c(C)no[n+]3[O-])c2n1Cc1ccc(-c2ccccc2-c2noc(=O)[nH]2)cc1	-3%
CCOc1nc2cccc(C(=O)OC(OC(=O)OCc3nc(C)c(C)nc3C)C(C)C)c2n1Cc1ccc(-c2ccccc2-c2noc(=O)[nH]2)cc1 (centres unmarked)	-3%
CCOc1nc2cccc(C(=O)Oc3ccc(OCc4c(-c5ccccc5)no[n+]4[O-])cc3)c2n1Cc1ccc(-c2ccccc2-c2noc(=O)[nH]2)cc1	-4%
CCOc1nc2cccc(C(=O)OC(OC(=O)OCc3nc(C)c(C)nc3C)C(C)(C)C)c2n1Cc1ccc(-c2ccccc2-c2noc(=O)[nH]2)cc1 (centres unmarked)	-2%
CCOc1nc2cccc(C(=O)OC(C)OC(=O)OCc3ccn(C)c3)c2n1Cc1ccc(-c2ccccc2-c2noc(=O)[nH]2)cc1 (centres unmarked)	-1%
CCOc1nc2cccc(C(=O)OCc3oc(=O)c(=O)oc3C)c2n1Cc1ccc(-c2ccccc2-c2noc(=O)[nH]2)cc1	4%
CCOc1nc2cccc(C(=O)OCc3oc(=S)oc3C)c2n1Cc1ccc(-c2ccccc2-c2noc(=O)[nH]2)cc1	-5%
CCOc1nc2cccc(C(=O)OC(C)OC(=O)OCc3no[n+]([O-])c3C)c2n1Cc1ccc(-c2ccccc2-c2noc(=O)[nH]2)cc1 (centres unmarked)	-1%

* * *

System: renovascular hypertensive rats
PROCEDURE_SUMMARY: Effect on reducing blood pressure of renovascular hypertensive rats by single oral administration
Format: in vivo, Wistar rats
PROTOCOL_CONDITIONS: Rattus norvegicus; 1.0 mg/kg, single oral administration, RHR; read-out: Variations on heart rate
Listing: change in vivo at 1 mg/kg of selected molecules

MOLECULE	change in vivo at 1 mg/kg [%]
CCOc1nc2cccc(C(=O)OCc3c(C)no[n+]3[O-])c2n1Cc1ccc(-c2ccccc2-c2noc(=O)[nH]2)cc1 [QR01025]	-7
CCOc1nc2cccc(C(=O)OCOC(=O)OCc3ccn(C)c3)c2n1Cc1ccc(-c2ccccc2-c2noc(=O)[nH]2)cc1 [QR01032]	-9
CCOc1nc2cccc(C(=O)OCc3oc(=O)oc3C)c2n1Cc1ccc(-c2ccccc2-c2noc(=O)[nH]2)cc1 [Azilsartan medoxomil, reference compound]	-7
CCOc1nc2cccc(C(=O)OC(OC(=O)OCc3nc(C)c(C)nc3C)C(C)C)c2n1Cc1ccc(-c2ccccc2-c2noc(=O)[nH]2)cc1 (centres unmarked) [QR01027]	-5
CCOc1nc2cccc(C(=O)OCc3no[n+]([O-])c3C)c2n1Cc1ccc(-c2ccccc2-c2noc(=O)[nH]2)cc1 [QR01023]	-16

* * *

Listing: inhibition in vivo at 0.5 mg/kg of selected compounds
Tested on: renovascular hypertensive rats
PROCEDURE_SUMMARY: Effect on reducing blood pressure of renovascular hypertensive rats by single oral administration
Assay type: in vivo, Wistar rats
PROTOCOL_CONDITIONS: Rattus norvegicus; 0.5 mg/kg, single oral administration, two-kidney one-clip RHR, measured 1-10 h; read-out: Maximum blood pressure reduction
READOUT_LABEL: inhibition in vivo at 0.5 mg/kg (%)

COMPOUND	VALUE_UNITS	NUMBER
CCOc1nc2cccc(C(=O)OCCCCOc3no[n+]([O-])c3S(=O)(=O)c3ccccc3)c2n1Cc1ccc(-c2ccccc2-c2noc(=O)[nH]2)cc1 [QR01011]	%	16
CCOc1nc2cccc(C(=O)OC3COC4C(O[N+](=O)[O-])COC34)c2n1Cc1ccc(-c2ccccc2-c2noc(=O)[nH]2)cc1 (stereo not shown) [QR01007]	%	10
CCOc1nc2cccc(C(=O)OC(C)OC(=O)OCc3nc(C)c(C)nc3C)c2n1Cc1ccc(-c2ccccc2-c2noc(=O)[nH]2)cc1 (stereo not shown) [QR01019]	%	24
CCOc1nc2cccc(C(=O)OCOC(=O)OC(C)C)c2n1Cc1ccc(-c2ccccc2-c2noc(=O)[nH]2)cc1 [QR01002]	%	12
